test system: THP-1 cells; experiment: In vitro antiproliferative CCK-8 assay, THP-1; format: cell-based; settings: Homo sapiens, 72 h, CCK-8, read-out: IC50 growth inhibition THP-1
pIC50: −log10 of the molar value.
metric_name: pIC50

                                   compound  quantitative_readout
0  Nc1ccn([C@@H]2O[C@H](CO)[C@@H](O)[C@@H]2O)c(=O)n1 [Ara-C, Cytarabine, reference compound]                  6.28

---

tested on: THP-1 cells; assay: In vitro antiproliferative CCK-8 assay, THP-1; format: cell-based; details: Homo sapiens, dose of 1 μM, mean of three experiments, read-out: THP-1 percentage inhibitory rate
If the reported inhibition at 1 µM equals or exceeds 30%, assign true (1). If not, assign false (0).

                                    compound  class_label
 0  C=CC(=O)Nc1ccc(-c2cc(C(=O)Nc3ccc(F)cc3)c3ccccc3n2)cc1     true (1)
 1  C=CC(=O)Nc1ccc(-c2cc(C(=O)N3CCN(c4cccc(Cl)c4)CC3)c3ccccc3n2)cc1     true (1)
 2  C=CC(=O)Nc1ccc(-c2cc(C(=O)Nc3cc(OC)cc(OC)c3)c3ccccc3n2)cc1     true (1)
 3  C=CC(=O)Nc1ccc(-c2cc(C(=O)N3CCN(C(=O)OC(C)(C)C)CC3)c3ccccc3n2)cc1 [Compound P2]    false (0)
 4  C=CC(=O)Nc1ccc(-c2cc(C(=O)N3CCN(c4ccc(Cl)cc4)CC3)c3ccccc3n2)cc1     true (1)
 5  C=CC(=O)Nc1ccc(-c2cc(C(=O)N3CCN(C(C)C)CC3)c3ccccc3n2)cc1    false (0)
 6  C=CC(=O)Nc1ccc(-c2cc(C(=O)Nc3ccc4c(c3)OCO4)c3ccccc3n2)cc1    false (0)
 7  C=CC(=O)Nc1ccc(-c2cc(C(=O)Nc3ccc(Br)cc3)c3ccccc3n2)cc1     true (1)
 8  Nc1ccn([C@@H]2O[C@H](CO)[C@@H](O)[C@@H]2O)c(=O)n1 [Ara-C, Cytarabine, reference compound]     true (1)
 9  C=CC(=O)Nc1ccc(-c2cc(C(=O)Nc3ccc(Cl)cc3)c3ccccc3n2)cc1     true (1)
10  C=CC(=O)Nc1ccc(-c2cc(C(=O)Nc3ccc(C)cc3)c3ccccc3n2)cc1     true (1)
11  C=CC(=O)Nc1ccc(-c2cc(C(=O)N3CCN(c4ccccc4OC)CC3)c3ccccc3n2)cc1     true (1)
12  C=CC(=O)Nc1ccc(-c2cc(C(=O)N3CCN(c4ccc(F)cc4)CC3)c3ccccc3n2)cc1 [Compound P1]     true (1)
13  C=CC(=O)Nc1ccc(-c2cc(C(=O)Nc3ccc(CC)cc3)c3ccccc3n2)cc1     true (1)
14  C=CC(=O)Nc1ccc(-c2cc(C(=O)Nc3ccc(OCC)cc3)c3ccccc3n2)cc1    false (0)

---

target: SIRT3 (Homo sapiens); test: SIRT3 enzyme inhibitory assay (fluorescence); format: biochemical; details: dose of 10 μM; mean of three experiments; read-out: SIRT3 percentage inhibitory rate
Sequence (Q9NTG7 whole entry): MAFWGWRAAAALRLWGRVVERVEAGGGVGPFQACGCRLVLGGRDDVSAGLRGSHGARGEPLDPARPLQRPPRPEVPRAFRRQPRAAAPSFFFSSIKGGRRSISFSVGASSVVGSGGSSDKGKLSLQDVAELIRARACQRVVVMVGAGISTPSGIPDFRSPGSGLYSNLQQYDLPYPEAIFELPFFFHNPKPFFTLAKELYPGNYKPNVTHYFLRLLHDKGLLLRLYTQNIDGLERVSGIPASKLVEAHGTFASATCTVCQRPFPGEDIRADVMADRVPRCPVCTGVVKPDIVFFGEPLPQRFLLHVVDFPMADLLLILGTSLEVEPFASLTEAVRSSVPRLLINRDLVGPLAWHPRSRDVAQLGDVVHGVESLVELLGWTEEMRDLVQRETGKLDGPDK
metric_name: inhibition at 10 µM

>>> df
                                   compound          metric_name  result
0  C=CC(=O)Nc1ccc(-c2cc(C(=O)Nc3ccc(CCCCC)cc3)c3ccccc3n2)cc1  inhibition at 10 µM   30.6%
1  C=CC(=O)Nc1ccc(-c2cc(C(=O)N3CCN(c4ccc(Cl)cc4)CC3)c3ccccc3n2)cc1  inhibition at 10 µM   22.6%
2  C=CC(=O)Nc1ccc(-c2cc(C(=O)Nc3ccc(OC)cc3)c3ccccc3n2)cc1  inhibition at 10 µM   28.4%
3  C=CC(=O)Nc1ccc(-c2cc(C(=O)N3CCN(CCc4ccccc4)CC3)c3ccccc3n2)cc1  inhibition at 10 µM   30.2%
4  C=CC(=O)Nc1ccc(-c2cc(C(=O)N3CCN(c4ccccc4OC)CC3)c3ccccc3n2)cc1  inhibition at 10 µM   45.5%
5  C=CC(=O)Nc1ccc(-c2cc(C(=O)Nc3cccc(OC)c3)c3ccccc3n2)cc1  inhibition at 10 µM   22.2%
6  C=CC(=O)Nc1ccc(-c2cc(C(=O)N3CCN(C(=O)OC(C)(C)C)CC3)c3ccccc3n2)cc1 [Compound P2]  inhibition at 10 µM   23.5%
